# STUDY_SYSTEM: MMADHC
# EXPERIMENTAL_PROTOCOL: pooled miR-30 sensor sort-seq; sequence = guide strand
# MEASUREMENT_CONDITIONS: shRNA
RECORDED_METRIC: sensor-assay potency score (higher = more potent)

{"SEQ": "TTCTTCTGTGAAGCAGTCCCAT", "STUDY_SYSTEM": "MMADHC", "REPORTED": -0.488}
{"SEQ": "TGAGGTGACAATCAAAACCTAT", "STUDY_SYSTEM": "MMADHC", "REPORTED": -0.635}
{"SEQ": "TTGTGTTACAGTCAGAATCATT", "STUDY_SYSTEM": "MMADHC", "REPORTED": -1.32}
{"SEQ": "TTTTCTAAGAGCACTTCTCTTT", "STUDY_SYSTEM": "MMADHC", "REPORTED": -0.6}

sensor-assay potency score (higher = more potent) lookup needed for TTTCTTGTTCAACAGGTGCATC , thanks. -1.26

Look up sensor-assay potency score (higher = more potent) for this sequence: TTTGCCATTAGCTACTTCTGGA -0.35

Record request: sensor-assay potency score (higher = more potent) value, item TTCTTCACTCCAAACAGTCATA -1.24

---

# STUDY_SYSTEM: L1TD1
# EXPERIMENTAL_PROTOCOL: pooled miR-30 sensor sort-seq; sequence = guide strand
# MEASUREMENT_CONDITIONS: shRNA
RECORDED_METRIC: sensor-assay potency score (higher = more potent)
Reply with the value as a number alone.

Look over these answered cases.
{"SEQ": "TTGAATTTCCATTAAGACCTTA", "REPORTED": 0.102}
{"SEQ": "TACTTCTCAAGTTTTCTTCTGT", "REPORTED": 0.707}
{"SEQ": "TATTTCTCCAGCTCTATGCTTT", "REPORTED": -0.459}
{"SEQ": "TTGGATGTTAGTTCTTCTGTGT", "REPORTED": 0.173}

Consider now this further sequence.
Look up sensor-assay potency score (higher = more potent) with L1TD1 for this sequence: TTGATCTTCTAGACTGTCTATT -0.179

---

# STUDY_SYSTEM: JMJD1C
# EXPERIMENTAL_PROTOCOL: pooled miR-30 sensor sort-seq; sequence = guide strand
# MEASUREMENT_CONDITIONS: shRNA
RECORDED_METRIC: sensor-assay potency score (higher = more potent)
// keep it numeric: no unit symbol after the value

Some entries whose results are on file:
{"SEQ": "TATCTTGTCAACATCTTTCCCA", "REPORTED": 0.56}
{"SEQ": "TAGTCTTGAAGTCTTCTCCTGA", "REPORTED": 0.704}
{"SEQ": "TTTACATTTATCTTGGAGGTTT", "REPORTED": -0.435}

Hello, I am looking for reported sensor-assay potency score (higher = more potent) with JMJD1C for ATCTATTCTAACTACTCCGTTT . Could you help? -1.09

---

# STUDY_SYSTEM: NETO2
# EXPERIMENTAL_PROTOCOL: pooled miR-30 sensor sort-seq; sequence = guide strand
# MEASUREMENT_CONDITIONS: shRNA
Tick met if sensor-assay potency score (higher = more potent) is -0.9 or greater. Tick not met if sensor-assay potency score (higher = more potent) is less than -0.9.

Worked examples follow.
{"SEQ": "TTGCTCGAAATCCCAGTCCTTC", "CAT": "met"}
{"SEQ": "TTATTAACAACACTTTGAGGAC", "CAT": "met"}
{"SEQ": "TTCTTTGACGTGGAGCAGCTTC", "CAT": "met"}

// inclusive: sensor-assay potency score (higher = more potent) at least -0.9? input: TTGACGTGGAGCAGCTTCCAAA not met

For this sequence, is measured sensor-assay potency score (higher = more potent) -0.9 or higher? TTTCAATAGAACTGCTTCCATC not met

---

# STUDY_SYSTEM: KBTBD12
# EXPERIMENTAL_PROTOCOL: pooled miR-30 sensor sort-seq; sequence = guide strand
# MEASUREMENT_CONDITIONS: shRNA
sensor-assay potency score (higher = more potent) for assorted sequences

A selection of reference data follows.
{"SEQ": "TTGTAGTGTCTTATTTACCCTA", "STUDY_SYSTEM": "KBTBD12", "REPORTED": -0.555}
{"SEQ": "TAAATCTTCAGCTCCAATCTGC", "STUDY_SYSTEM": "KBTBD12", "REPORTED": 0.302}
{"SEQ": "TTCATCAGGAAGATCCATCTGA", "STUDY_SYSTEM": "KBTBD12", "REPORTED": 0.942}

Record request: sensor-assay potency score (higher = more potent) value, item TATGTCTTGATCTGATTCCTGA 0.119

Suppose we examine the sequence TACAGCTGTACTGAATCGGTAC ; what sensor-assay potency score (higher = more potent) value has been reported? -0.257

Any idea what its sensor-assay potency score (higher = more potent) is? The sequence is TATATTTTTGACACACACTGAA 0.336

Can you look up the measured sensor-assay potency score (higher = more potent) of TTCTTCATCAGGAAGATCCATC for me? -0.961

---

# STUDY_SYSTEM: ZDHHC14
# EXPERIMENTAL_PROTOCOL: pooled miR-30 sensor sort-seq; sequence = guide strand
# MEASUREMENT_CONDITIONS: shRNA
Please note: fulfilled applies when sensor-assay potency score (higher = more potent) is 0.2 or greater, and not fulfilled applies otherwise.

Study these solved cases before continuing.
{"SEQ": "TTTGCGATATCTATTTGCCTTT", "CAT": "not fulfilled"}
{"SEQ": "TTTGTTGTCTGGTTGGAGCTGA", "CAT": "fulfilled"}
{"SEQ": "TTACCTCTTTTATTTGACCAGG", "CAT": "not fulfilled"}
{"SEQ": "TTACAGAAGAACTTGTTTCTTC", "CAT": "fulfilled"}

Now examine the next entry.
# check: sensor-assay potency score (higher = more potent) of TTGCAGTCTGGCCACAAGCGTC is greater than or equal to 0.2 not fulfilled

---

# STUDY_SYSTEM: HHATL
# EXPERIMENTAL_PROTOCOL: pooled miR-30 sensor sort-seq; sequence = guide strand
# MEASUREMENT_CONDITIONS: shRNA
RECORDED_METRIC: sensor-assay potency score (higher = more potent)
I only need the number, thanks.

Consider the worked cases shown below.
{"SEQ": "TACACAGCATACATCCAGGAGC", "STUDY_SYSTEM": "HHATL", "REPORTED": -1.03}
{"SEQ": "TTGTACATGATGATGGCCCAGA", "STUDY_SYSTEM": "HHATL", "REPORTED": -0.478}
{"SEQ": "TTAGCAAACAGCACATGTCCGG", "STUDY_SYSTEM": "HHATL", "REPORTED": -0.577}
{"SEQ": "TCAGCCACATCCATCTTCCGGC", "STUDY_SYSTEM": "HHATL", "REPORTED": -0.0987}

Please report the recorded sensor-assay potency score (higher = more potent) for TAGAGTGCGGTGATGCACTTGG . 0.641

Any idea what its sensor-assay potency score (higher = more potent) is? The sequence is TAGCAAACAGCACATGTCCGGA -0.627

---

# STUDY_SYSTEM: C2orf76
# EXPERIMENTAL_PROTOCOL: pooled miR-30 sensor sort-seq; sequence = guide strand
# MEASUREMENT_CONDITIONS: shRNA
RECORDED_METRIC: sensor-assay potency score (higher = more potent)
Form rule: numeric answer, no unit written next to it.

Take a look at these entries with their results.
{"SEQ": "TTCGTCATCTTCCAAACTCAAC", "STUDY_SYSTEM": "C2orf76", "REPORTED": -1.74}
{"SEQ": "TGTAGTTCTTATAATCTTCTTC", "STUDY_SYSTEM": "C2orf76", "REPORTED": 0.298}
{"SEQ": "TAAAGGGATATCTTGCTTTAGA", "STUDY_SYSTEM": "C2orf76", "REPORTED": -0.915}
{"SEQ": "TTTGTCTTTGATTTATGTGCTT", "STUDY_SYSTEM": "C2orf76", "REPORTED": -0.117}
{"SEQ": "TTTCACTGGCGATTCCAGCTGC", "STUDY_SYSTEM": "C2orf76", "REPORTED": 0.205}
{"SEQ": "TTGTCTTTGATTTATGTGCTTG", "STUDY_SYSTEM": "C2orf76", "REPORTED": -0.405}

// map TTTGTAGTTCTTATAATCTTCT to recorded sensor-assay potency score (higher = more potent) (system: C2orf76) -0.217

All figures here come from the OligoGym collection.
